Source listed as patent US12492188B2.

Biological target: human TLR9 (Homo sapiens)
Construct: host or cells: HEK-Blue cells (HEK293-derived reporter line)
Sequence (Q9NR96 26-1032): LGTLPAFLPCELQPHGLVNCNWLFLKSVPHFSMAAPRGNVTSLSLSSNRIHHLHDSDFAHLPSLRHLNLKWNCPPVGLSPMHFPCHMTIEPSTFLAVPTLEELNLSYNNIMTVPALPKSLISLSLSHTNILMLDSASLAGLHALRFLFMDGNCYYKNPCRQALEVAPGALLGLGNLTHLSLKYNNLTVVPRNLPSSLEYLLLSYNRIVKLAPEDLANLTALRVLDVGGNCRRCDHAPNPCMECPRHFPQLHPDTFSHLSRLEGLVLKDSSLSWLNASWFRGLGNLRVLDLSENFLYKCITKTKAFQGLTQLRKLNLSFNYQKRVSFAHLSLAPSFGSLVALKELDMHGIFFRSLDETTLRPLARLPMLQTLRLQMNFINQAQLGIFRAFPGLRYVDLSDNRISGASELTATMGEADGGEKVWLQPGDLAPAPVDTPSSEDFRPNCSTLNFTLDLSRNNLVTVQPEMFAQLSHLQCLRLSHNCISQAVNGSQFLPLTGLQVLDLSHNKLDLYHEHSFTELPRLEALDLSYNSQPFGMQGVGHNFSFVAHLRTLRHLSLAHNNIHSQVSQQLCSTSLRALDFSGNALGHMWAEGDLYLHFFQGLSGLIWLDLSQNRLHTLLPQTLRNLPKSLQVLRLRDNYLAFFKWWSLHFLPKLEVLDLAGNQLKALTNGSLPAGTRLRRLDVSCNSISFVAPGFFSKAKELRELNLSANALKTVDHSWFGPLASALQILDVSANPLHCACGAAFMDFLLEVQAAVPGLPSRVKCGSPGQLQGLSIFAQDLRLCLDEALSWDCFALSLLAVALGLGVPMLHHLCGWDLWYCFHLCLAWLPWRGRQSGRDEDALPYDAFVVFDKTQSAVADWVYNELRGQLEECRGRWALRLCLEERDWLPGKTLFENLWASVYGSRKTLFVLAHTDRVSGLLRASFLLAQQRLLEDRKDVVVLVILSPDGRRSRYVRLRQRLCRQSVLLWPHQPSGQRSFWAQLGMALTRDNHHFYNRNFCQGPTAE
Experiment: TLR9 inhibition reporter assay (HEK-Blue cells, secreted embryonic alkaline phosphatase reporter)
Format: cell-based
Settings: HEK-Blue human TLR9 reporter cells
# reported IC50; entries follow
// return the numeric value with its unit appended

Cc1cc(C2CCN(C3CC4CCC(C3)N4CC3CC3)CC2)cc2c1nc(-c1ccc(S(C)(=O)=O)c(F)c1)n2C (stereo not shown) [Example 341]: 37 nM
Cc1cc(C2CCN(C3CC4CCC(C3)N4C(C)C)CC2)cc2[nH]c(-c3ccc(S(C)(=O)=O)cc3)nc12 (stereo not shown) [Example 333]: 330 nM
COCCN1CCCC(N2CCC(c3cc(C)c4nc(-c5ccc(S(C)(=O)=O)cc5)n(C)c4c3)CC2)CC1 (single isomer, unassigned) [Example 308]: 6.7 nM
CC(C)CN1C2CCC1CC(N1CCC(c3cc(F)c4nc(-c5ccc(S(C)(=O)=O)cc5)n(C)c4c3)CC1)C2 (stereo not shown) [Example 285]: 250 nM
Cc1c(C2CCN(C3CCN(CC(C)C)CC3)CC2)ccc2nc(-c3ccc(S(C)(=O)=O)cc3)n(C)c12: 1400 nM

Need IC50, item Cn1c(-c2ccc(S(C)(=O)=O)cc2)nc2c(F)cc(C3CCN(C4CC5CCC(C4)N5CC4CC4)CC3)cc21 (single isomer, unassigned) [Example 283]
16 nM

---

Target: human TLR9 (Homo sapiens)
Construct: host or cells: HEK-Blue cells (HEK293-derived reporter line)
Assay: TLR9 inhibition reporter assay (HEK-Blue cells, secreted embryonic alkaline phosphatase reporter)
Format: cell-based
Settings: HEK-Blue cells overexpressing human TLR9, stimulated with ODN2006 5 nM, 22 hour incubation, reporter readout
result type: log10(IC50) (log10 of the value in nM)
// do not treat as linear: log10 of IC50, unit nM

COc1ccc(-c2nc3cc(C4CCN(C5CCN(C(C)C)CC5)CC4)ccc3n2CC(F)F)cc1OC: 2.45
COc1ccc(-c2nc3c(C)cc(C4CCN(C5CCN(CC(C)C)CC5)CC4)cc3[nH]2)cc1Cl: 1.96
COc1ccc(-c2nc3c(C)cc(C4CCN(C5CCN(C(C)C)CC5)CC4)cc3[nH]2)cc1OC: 1.52

Need log10(IC50), item Cc1cc(C2CCN(C3CCN(CC(C)C)CC3)CC2)cc2[nH]c(-c3ccc4c(c3)OC(F)(F)O4)nc12 [Example 65, tris(2,2,2-trifluoroacetate)]
2.48

Note, next up: COc1ccc(-c2nc3c(C)cc(C4CCN(C5CCN(C6CC6)CC5)CC4)cc3[nH]2)cc1F
2.23

Note, next up: Cc1cc(C2CCN(C3CCN(CC(C)C)CC3)CC2)cc2[nH]c(-c3ccc(OC(F)(F)F)cc3)nc12
2.30

Note, next up: COc1ccc(-c2nc3c(C)cc(C4CCN(C5CCN(C(=O)C(C)C)CC5)CC4)cc3[nH]2)cc1OC
2.71

Note, next up: Cc1cc(C2CCN(C3CCCN(C4CCC4)CC3)CC2)cc2c1nc(-c1ccc(S(C)(=O)=O)cc1)n2C (single isomer, unassigned) [Example 111]
1.38

Note, next up: COc1ccc(-c2nc3ccc(C4CCN(C5CCN(CC(C)C)CC5)CC4)cc3[nH]2)cc1OC
1.28

Note, next up: CCN(C)C1CCN(c2ccc(-c3cc(C)c4nc(-c5ccc(S(C)(=O)=O)cc5)n(C)c4c3)cc2)CC1
2.43
